Biological target: thrombin (Recothrom), recombinant human (Homo sapiens, UniProt P00734;P00734 315-363;364-622)
Test: ELISA (apparent Kd); 1 mM Mg2+; ELISA: 25 mM Tris, 10 mM NaCl, 1 mM MgCl2, pH 7.4, RT, 1 h; aptamers heated 95 C 10 min and refolded at RT 20 min; Kd unit (nM) from Results text. BLI: Octet RE
recordedEndpoint: Kd (nM)
One number for each entry, in nM.

As a guide, the following entries are already answered.
binder="ACCCGTGGTAGGGTAGGATGGGGTGGT (structured_DNA) [Aptamer 30-38/27]" assayresult=1.28
binder="Aptamer 30-14 (structured_DNA) DNA: AGATGCCTGTCGAGCATGCTGTTGTGGTAGGGTTAGGGATGGTAGCGGTTGTAGCTAAACTGCTTTGTCGACGG" assayresult=2.75
binder="Aptamer 30-8 (structured_DNA) DNA: AGATGCCTGTCGAGCATGCTGTGAATAGGTAGGGTCGGATGGGCTACGGTGTAGCTAAACTGCTTTGTCGACGGG" assayresult=0.58
binder="TACCGTGGTAGGGAAGGTTGGAGTGTA (structured_DNA) [Aptamer 30-16/27]" assayresult=1.54
binder="GGTTGGTGTGGTTGG (structured_DNA) [Aptamer G15D]" assayresult=1.48

input: Could you tell me which Kd is on file for CAGTCCGTGGTAGGGCAGGTTGGGGTGACTTCGTGGAA (structured_DNA) [Aptamer 60-18/38] ?
output: 1.48
